Target: Prostaglandin G/H synthase 2 (Homo sapiens, UniProt P35354)
Sequence (P35354 whole entry): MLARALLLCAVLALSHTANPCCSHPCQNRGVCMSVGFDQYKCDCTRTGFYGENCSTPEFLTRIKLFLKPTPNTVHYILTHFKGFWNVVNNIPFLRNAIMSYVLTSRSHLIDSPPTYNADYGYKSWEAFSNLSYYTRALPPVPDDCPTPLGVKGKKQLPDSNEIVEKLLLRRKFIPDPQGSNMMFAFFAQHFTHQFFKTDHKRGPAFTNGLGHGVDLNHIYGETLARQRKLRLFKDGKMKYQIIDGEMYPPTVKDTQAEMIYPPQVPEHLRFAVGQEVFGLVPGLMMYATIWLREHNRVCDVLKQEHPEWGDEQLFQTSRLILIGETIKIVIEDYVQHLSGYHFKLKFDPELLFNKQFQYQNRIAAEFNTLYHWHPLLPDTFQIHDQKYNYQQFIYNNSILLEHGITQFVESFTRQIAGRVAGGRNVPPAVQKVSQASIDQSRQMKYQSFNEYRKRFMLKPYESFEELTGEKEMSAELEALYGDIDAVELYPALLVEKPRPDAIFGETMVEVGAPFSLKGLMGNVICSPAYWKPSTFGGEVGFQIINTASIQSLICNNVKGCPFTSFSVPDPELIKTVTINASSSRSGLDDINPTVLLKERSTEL
Readout name: IC50 (nM)

// query IC50 value for entry `NS(=O)(=O)c1ccc(-c2[nH]c3ccccc3c2-c2ccc(O)cc2)cc1` 6.44

1 = Cc1ccc(-c2c(-c3ccc(S(C)(=O)=O)cc3)[nH]c3ccccc23)cc1
2 = COc1ccc(-c2c(-c3ccc(S(C)(=O)=O)cc3)[nH]c3ccccc23)cc1
Could you tell me which of 1 and 2 has the lower IC50 reading? Respond with the label that goes with your answer. 2

----------
System: Prostaglandin G/H synthase 2 (Homo sapiens, UniProt P35354) | Read-out: pIC50
pIC50: −log10 of the molar value.
Readout name: pIC50

Example cases with answers are listed next.
// query pIC50 value for entry `Cc1ccc2[nH]c(-c3ccc(S(N)(=O)=O)cc3)c(-c3ccccc3)c2c1` 10.70

Moving on to the next compound: `NS(=O)(=O)c1ccc(-c2[nH]c3ccc(Cl)cc3c2-c2ccc(Cl)cc2)cc1` 9.27

Moving on to the next compound: `CS(=O)(=O)c1ccc(-c2[nH]c3ccccc3c2-c2ccc(Cl)cc2)cc1` 6.84

Moving on to the next compound: `NS(=O)(=O)c1ccc(-c2[nH]c3ccc(Cl)cc3c2-c2ccccc2)cc1` 9.85

Moving on to the next compound: `CS(=O)(=O)c1ccc(-c2[nH]c3ccccc3c2-c2ccc(Br)cc2)cc1` 9.43

Moving on to the next compound: `Cc1ccc(-c2c(-c3ccc(S(N)(=O)=O)cc3)[nH]c3ccccc23)cc1C` 8.84

Moving on to the next compound: `CS(=O)(=O)c1ccc(-c2[nH]c3ccccc3c2-c2ccccc2)cc1` 9.22

Moving on to the next compound: `CS(=O)(=O)c1ccc(-c2[nH]c3ccc(Br)cc3c2-c2ccccc2)cc1` 8.85

1 = Cc1ccc2[nH]c(-c3ccc(S(C)(=O)=O)cc3)c(-c3ccccc3)c2c1
2 = NS(=O)(=O)c1ccc(-c2[nH]c3ccccc3c2-c2ccccc2)cc1
Could you tell me which of 1 and 2 has the lower pIC50 reading? Respond with the label that goes with your answer. 1
